- test.details: P. aeruginosa biofilm formation inhibitors, primary screen, strain PAO1, LB-PBS medium, absorbance 600 nm (AID 1176); note: test concentration not given here
- assay.conditions: P. aeruginosa PAO1 growth/biofilm, A600, 12 h; higher = more signal
measure: z-score
Simply state the number, no unit and no words.

Record excerpt, results attached:
CC(C)[C@@H](OCc1ccccc1)[C@H](C)CON=C1[C@H]2CCn3c(=O)n(-c4ccccc4)c(=O)n3[C@H]2[C@H](O)[C@@H]2O[C@H]12
-0.348
CO[C@H]1COC(=O)CCC[C@H](C)[C@@H](OC)COC(=O)CC=C[C@@H]1C
-0.339
COC(=O)CC=C[C@@H](C)[C@@H](C=NOC[C@@H](C)[C@H](OCc1ccccc1)C(C)C)OC
-0.892
Cc1ccc(C(C)C)n1C(=O)OC(C)(C)C
1.01
COC(=O)C(C(=O)OC)C1CCCC(=O)C1 (stereo not given)
-0.482
CC(=O)OC[C@H]1O[C@@H](ON=C(C)CCN2CCCCc3nc(C)c(C)cc32)[C@H](OC(C)=O)[C@@H](OC(C)=O)[C@@H]1OC(C)=O
-0.679
COc1ccc(O[C@H]2C=C[C@@H](c3ccccc3)O[C@@H]2CON=C2c3cc(OC)ccc3O[C@H](c3cccc(OC)c3)[C@H]2O)cc1
1.53
CCOC(=O)CCN1C(=O)[C@H]2[C@H]3[C@H](O)[C@H](O)CC(=O)[C@@H]3CC[C@H]2C1=O
-0.708
CCOC(=O)[C@H](CC(C)C)NC(=O)CCC1CC(OC(=O)NCCc2ccc(F)cc2)CC2(CCCC(COC(=O)NCCCN3CCCC3=O)O2)O1 (stereo not given in full)
0.909
CC(C)(C)N1C(=O)[C@H]2[C@H]3[C@H](O)[C@H](O)CC(=NNC(=O)OCc4ccccc4)[C@H]3CC[C@H]2C1=O
0.118

Now for another entry.
Task: Return reported z-score. Input compound: `CON=C(C)CCC(=O)OC[C@H]1O[C@H](C#Cc2ccccc2)C=C[C@@H]1Oc1ccc(C)cc1`
Result: 0.298
